Listing: OD450 at 0.1 nM of selected binders
- Test System: T1, monkey GPC3-His protein (monkey)
- T1 construct: Bought recombinant protein; also called monkey GPC3 protein
- Assay Notes: ELISA, monkey GPC3-His coated;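 note: Plate-coated antigen at 1 µg/mL, antibody binding 2 h at 37 °C, detected with HRP-labeled secondary antibody and TMB, absorbance at 450 nm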
Only the number, expressed in OD450, is required.

Binder	Reported Property	Unit Of Measure	Endpoint Result
F1.42.8 (antibody, human IgG1, kappa, V domains shown, Human-murine chimeric antibody) VH: HVQLQQPGAELVKPGASVKLSCKASGYTFTSYWMHWVRQRPGQGLEWIEMIHPNSGSTNYNEKFKSKATLTVDKSSSTAYMQLSSLTSEDSAVYYCARGNYNSSLYAMDYWGQGTSVTVSS VL: DIQMTQTTSSLSASLGDRVTISCSASQGISNYLNWYQQKPDGTVKLLIYYASNLHSGVPSRFSGSGSGTAYSLTISNLEPEDIATYYCQQYSILPYTFGGGTKLEIKR	OD450 at 0.1 nM	OD450	1.61

Then there is this binder:
Recorded OD450 at 0.1 nM (binder F1.118.4 (antibody, human IgG1, kappa, V domains shown, Human-murine chimeric antibody) VH: QVQLQQSGAELAKPGASVKLSCKASGYSFTSYWIHWVKQRPGQGLEWIGYINPSSGYTKYNQKFKDKATLTADKSSSTAYMQLSSLTYEDSAVYYCARFGSSSFYFDYWGQGTTLTVSS VL: DIVLTQSPASLAVSLGQRATISCRASQSVSSSSYSYMHWYQQKPGQPPKLLIKYASNLDSGVPARFSGSGSGTDFTLNIHPVEEEDTATYYCQHSWEIPAFGGGTKLEIKR ): 1.43

All figures here come from patent US20260116991A1.
